# experiment.notes: Half life in rat at 10 mg/kg, po
# Assay type: ADME, organism-based
# Parameters: dose 10 mg/kg, route oral
# measurement.context: in vivo
measurement.type: half-life (min)

{"columns": ["chemical.smiles", "measurement.type", "data.value"],
 "data": [
  ["Cc1ccc(-c2nc(N)c3cc(Cc4ccccc4)sc3n2)o1", "half-life", 42]
]}

---

# measured.target: Adenosine receptor A1 (Homo sapiens, UniProt P30542)
# Sequence (P30542 whole entry): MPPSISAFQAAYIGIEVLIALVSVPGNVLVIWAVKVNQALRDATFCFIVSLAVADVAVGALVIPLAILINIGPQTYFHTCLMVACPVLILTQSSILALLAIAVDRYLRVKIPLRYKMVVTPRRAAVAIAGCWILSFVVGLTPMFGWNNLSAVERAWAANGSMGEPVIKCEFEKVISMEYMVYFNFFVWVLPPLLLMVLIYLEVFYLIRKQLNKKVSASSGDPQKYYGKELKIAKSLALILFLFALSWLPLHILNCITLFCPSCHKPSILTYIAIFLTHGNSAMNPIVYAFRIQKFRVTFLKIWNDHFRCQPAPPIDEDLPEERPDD
# experiment.notes: Antagonist activity at human adenosine A1 receptor expressed in CHOK1 cells assessed as inhibition of R-PIA/forskolin-induced cAMP accumulation incubated for 15 mins prior to R-PIA/forskolin challenge measured after 5.5 to 6 hrs by beta-galactosidase reporter gene assay
# note: boundary value 0.3 µM maps to class 0; Ki below it maps to class 1

{"columns": ["molecule", "label.value"],
 "data": [
  ["Cc1csc(-c2nc(N)c3cc(C(C)c4ccccc4)sc3n2)n1 (configuration not stated)", "class 0"],
  ["Nc1nc(-c2ccccc2)nc2sc(-c3ccccc3)cc12", "class 1"],
  ["Nc1nc(C2CCCO2)nc2sc(Cc3ccccc3)cc12 (configuration not stated)", "class 0"],
  ["Nc1nc(-c2ncco2)nc2sc(Cc3ccccc3)cc12", "class 0"],
  ["Nc1nc(-c2ccccc2)nc2sc(Cc3ccccc3)cc12", "class 1"],
  ["Cc1ccc(-c2nc(N)c3ccsc3n2)o1", "class 0"],
  ["COc1ccccc1Cc1cc2c(N)nc(-c3ccc(C)o3)nc2s1", "class 1"],
  ["CC(C)c1ccc(-c2nc(N)c3cc(Cc4ccccc4)sc3n2)o1", "class 1"],
  ["C=C(c1ccccc1)c1cc2c(N)nc(-c3nc(C)cs3)nc2s1", "class 0"],
  ["Cc1ccc(-c2nc(N)c3cc(C(C)c4ccccc4)sc3n2)o1 (configuration not stated)", "class 0"],
  ["C=C(c1ccccc1)c1cc2c(N)nc(-c3cccc(C#N)c3)nc2s1", "class 0"]
]}

---

# measured.target: UniProt P29274
# Sequence (P29274 whole entry): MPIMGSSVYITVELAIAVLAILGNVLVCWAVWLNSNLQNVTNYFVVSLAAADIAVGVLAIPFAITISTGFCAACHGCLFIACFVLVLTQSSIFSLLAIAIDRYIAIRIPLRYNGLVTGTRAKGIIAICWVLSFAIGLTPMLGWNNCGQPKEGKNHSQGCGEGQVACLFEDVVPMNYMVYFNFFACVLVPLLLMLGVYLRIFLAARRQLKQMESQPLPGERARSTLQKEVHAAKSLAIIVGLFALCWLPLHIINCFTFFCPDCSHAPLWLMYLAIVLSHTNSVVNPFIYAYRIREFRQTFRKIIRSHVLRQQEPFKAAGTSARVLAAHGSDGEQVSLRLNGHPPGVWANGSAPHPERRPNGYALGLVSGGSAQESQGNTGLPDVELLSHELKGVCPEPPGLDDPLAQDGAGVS
# experiment.notes: Antagonist activity at human adenosine A2a receptor expressed in CHOK1 cells assessed as inhibition of NECA/forskolin-induced cAMP accumulation incubated for 15 mins prior to NECA/forskolin challenge measured after 5.5 to 6 hrs by beta-galactosidase reporter gene assay
pKi: −log10 of the molar value.
Reported values of pKi for individual entries

{"columns": ["compound", "measured.target", "pKi"],
 "data": [
  ["Cc1csc(-c2nc(N)c3cc(Cc4ccccc4Cl)sc3n2)n1", "UniProt P29274", 8.16],
  ["N#Cc1cccc(-c2nc(N)c3cc(Cc4ccccc4Cl)sc3n2)c1", "UniProt P29274", 8.85],
  ["Nc1nc(-c2ccccc2)nc2sc(-c3ccccc3)cc12", "UniProt P29274", 6.68],
  ["Nc1nc(C2CCCO2)nc2sc(Cc3ccccc3)cc12 (centres undefined)", "UniProt P29274", 6.17]
]}

---

# measured.target: Adenosine receptor A1 (Homo sapiens)
# experiment.notes: Antagonist activity at human adenosine A1 receptor expressed in CHOK1 cells assessed as inhibition of R-PIA/forskolin-induced cAMP accumulation incubated for 15 mins prior to R-PIA/forskolin challenge measured after 5.5 to 6 hrs by beta-galactosidase reporter gene assay
Reported values of Ki for individual entries
measurement.type: Ki (nM)

{"columns": ["molecule", "measurement.type", "unit.descriptor", "reading.qualifier", "data.value"],
 "data": [
  ["Cc1csc(-c2nc(N)c3cc(C4(c5ccccc5)CC4)sc3n2)n1", "Ki", "nM", ">", 610],
  ["Nc1nc(-c2ccccn2)nc2sc(Cc3ccccc3)cc12", "Ki", "nM", "=", 3710],
  ["Cc1csc(-c2nc(N)c3cc(Cc4ccccc4F)sc3n2)n1", "Ki", "nM", "=", 28.6],
  ["Nc1nc(-c2cccc(C(F)(F)F)c2)nc2sc(Cc3ccccc3)cc12", "Ki", "nM", ">", 1000],
  ["N#Cc1cncc(-c2nc(N)c3cc(Cc4ccccc4)sc3n2)c1", "Ki", "nM", "=", 1160],
  ["N#Cc1cccc(-c2nc(N)c3cc(Cc4ccccc4)sc3n2)c1", "Ki", "nM", "=", 222],
  ["Nc1nc(-c2cccc(Cl)n2)nc2sc(Cc3ccccc3)cc12", "Ki", "nM", ">", 1000],
  ["CC(c1ccccc1)c1cc2c(N)nc(-c3cccc(C#N)c3)nc2s1 (configuration not stated)", "Ki", "nM", "=", 1770],
  ["Nc1nc(-c2ccncc2)nc2sc(Cc3ccccc3)cc12", "Ki", "nM", "=", 812],
  ["Nc1nc(-c2cnco2)nc2sc(Cc3ccccc3)cc12", "Ki", "nM", "=", 106],
  ["Cc1ccc(-c2nc(N)c3cc(-c4ccccc4)sc3n2)o1", "Ki", "nM", "=", 520],
  ["N#Cc1cccc(-c2nc(N)c3cc(C4(c5ccccc5)CC4)sc3n2)c1", "Ki", "nM", ">", 610]
]}
